test system: HCT116 WT; assay: Proliferation of HCT116 colorectal cell line, Cell TiterGlo; assay type: cell-based, human; details: wild type HCT116; tested simultaneously with GCN2KO and +ISRIB; read-out: HCT116 IC50 (uM) HCT116 WT (repeat)
value_type: IC50 (µM)

structure_notation	assay_value
C#CCOc1ccccc1C(=O)Nc1ccc(-c2cc(NC(=O)c3cccc(N=[N+]=[N-])c3)n(C)n2)cc1	7.18
